- tgt: Cannabinoid receptor 2 (Homo sapiens)
- Sequence (P34972 whole entry): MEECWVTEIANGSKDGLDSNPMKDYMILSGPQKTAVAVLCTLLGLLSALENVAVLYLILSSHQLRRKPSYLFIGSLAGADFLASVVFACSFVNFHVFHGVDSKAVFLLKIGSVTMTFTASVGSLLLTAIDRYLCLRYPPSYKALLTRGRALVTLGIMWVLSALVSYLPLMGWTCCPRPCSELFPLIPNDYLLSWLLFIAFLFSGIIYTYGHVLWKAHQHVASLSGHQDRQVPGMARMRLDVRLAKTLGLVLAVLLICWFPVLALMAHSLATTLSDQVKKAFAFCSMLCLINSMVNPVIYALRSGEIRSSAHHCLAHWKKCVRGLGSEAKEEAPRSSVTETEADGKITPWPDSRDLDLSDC
- assay_explanation: Agonist activity at recombinant human CB2 receptor expressed in HEK293 cells assessed as increase in beta arrestin recruitment measured after 2 to 3 hrs by PathHunter assay
pEC50: −log10 of the molar value.
Label rule met when pEC50 is at or above 8; anything below gets rule not met.

>>> print(df.to_string())
                                   molecule  answer_label
0  CC(C)(C)[C@@H](CF)NC(=O)c1nn(-c2c[n+]([O-])ccn2)c2c1C[C@@H]1C[C@H]21      rule met

Req: Textbook exercise: given the entry O=C(N[C@H](CO)C(F)(F)F)c1nn(-c2c[n+]([O-])ccn2)c2c1C[C@@H]1C[C@H]21 , state whether its pEC50 is greater than or equal to 8.
Resp: rule not met

Req: Now give it for CC1(NC(=O)c2nn(-c3c[n+]([O-])ccn3)c3c2C[C@@H]2C[C@H]32)CC1 too.
Resp: rule not met

Req: Proceed to O=C(NC1(C(F)(F)F)CCC1)c1nn(-c2c[n+]([O-])ccn2)c2c1C[C@@H]1C[C@H]21
Resp: rule met

Req: Param item: O=C(N[C@@H](CO)C(F)(F)F)c1nn(-c2c[n+]([O-])ccn2)c2c1C[C@@H]1C[C@H]21
Resp: rule not met

Req: Try CC(C)(C)[C@H](CO)NC(=O)c1nn(-c2cnccn2)c2c1C[C@@H]1C[C@H]21 next.
Resp: rule not met

Req: Also check CC(C)[C@@H](CO)NC(=O)c1nn(-c2c[n+]([O-])ccn2)c2c1C[C@@H]1C[C@H]21
Resp: rule not met

Req: O=C(NC1(CO)CCCC1)c1nn(-c2c[n+]([O-])ccn2)c2c1C[C@@H]1C[C@H]21 ?
Resp: rule met

---

- tgt: Voltage-gated inwardly rectifying potassium channel KCNH2 (Homo sapiens)
- Sequence (Q12809 whole entry): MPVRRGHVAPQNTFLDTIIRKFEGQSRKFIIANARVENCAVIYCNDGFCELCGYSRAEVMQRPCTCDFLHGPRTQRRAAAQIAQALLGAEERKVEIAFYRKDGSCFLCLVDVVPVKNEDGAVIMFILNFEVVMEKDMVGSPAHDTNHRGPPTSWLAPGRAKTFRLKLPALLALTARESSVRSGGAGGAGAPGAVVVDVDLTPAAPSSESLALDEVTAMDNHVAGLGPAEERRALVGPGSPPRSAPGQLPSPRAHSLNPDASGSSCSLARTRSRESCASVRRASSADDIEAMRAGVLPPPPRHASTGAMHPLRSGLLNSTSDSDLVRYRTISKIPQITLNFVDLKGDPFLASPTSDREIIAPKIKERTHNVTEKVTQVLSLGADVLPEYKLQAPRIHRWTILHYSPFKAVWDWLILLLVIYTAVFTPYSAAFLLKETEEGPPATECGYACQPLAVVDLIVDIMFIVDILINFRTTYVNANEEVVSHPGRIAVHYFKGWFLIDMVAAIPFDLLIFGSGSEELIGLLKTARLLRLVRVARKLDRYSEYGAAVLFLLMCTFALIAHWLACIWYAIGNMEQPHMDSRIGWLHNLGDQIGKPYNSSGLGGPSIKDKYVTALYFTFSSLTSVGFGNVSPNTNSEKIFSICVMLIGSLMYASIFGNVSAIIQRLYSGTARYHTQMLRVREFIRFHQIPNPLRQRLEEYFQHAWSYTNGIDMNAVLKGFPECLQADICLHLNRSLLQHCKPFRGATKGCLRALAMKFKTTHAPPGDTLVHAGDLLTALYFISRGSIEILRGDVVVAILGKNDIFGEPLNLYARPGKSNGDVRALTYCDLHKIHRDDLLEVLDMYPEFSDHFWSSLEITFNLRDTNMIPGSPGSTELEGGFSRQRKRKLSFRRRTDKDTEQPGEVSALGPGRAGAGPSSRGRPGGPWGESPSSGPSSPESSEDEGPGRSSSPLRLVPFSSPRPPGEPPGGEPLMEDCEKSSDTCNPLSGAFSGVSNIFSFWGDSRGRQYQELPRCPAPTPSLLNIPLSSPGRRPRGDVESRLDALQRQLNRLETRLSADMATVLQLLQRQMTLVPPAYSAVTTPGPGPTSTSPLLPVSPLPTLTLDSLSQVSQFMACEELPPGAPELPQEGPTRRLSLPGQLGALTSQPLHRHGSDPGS
- assay_explanation: Inhibition of human ERG by patch-clamp method
pIC50: −log10 of the molar value.
recorded_metric: pIC50

Req: Please report the recorded pIC50 for CC(C)(C)[C@@H](CO)NC(=O)c1nn(-c2c[n+]([O-])ccn2)c2c1C[C@@H]1C[C@H]21 .
Resp: < 4.52

---

- tgt: UniProt P34972
- assay_explanation: Agonist activity at recombinant human CB2 receptor expressed in HEK293 cells assessed as increase in beta arrestin recruitment measured after 2 to 3 hrs by PathHunter assay
The reader will find reported EC50 values listed item by item below.
Answer with the number, then the unit.

Solved entries:
                                   molecule  value_measured
0  CC(C)(C)[C@@H](CO)NC(=O)c1nn(-c2cnccn2)c2c1C[C@@H]1C[C@H]21           59 nM
1  CC(C)[C@@H](CF)NC(=O)c1nn(-c2c[n+]([O-])ccn2)c2c1C[C@@H]1C[C@H]21          3.8 nM

Req: Query: EC50; subject: CC(C)(C)[C@@H](CO)NC(=O)c1nn(-c2cnccn2)c2c1C[C@H]1C[C@@H]21
Resp: 26 nM

Req: How about CC(C)(NC(=O)c1nn(-c2c[n+]([O-])ccn2)c2c1C[C@@H]1C[C@H]21)C(F)(F)F ?
Resp: 2.3 nM

---

- assay_explanation: Ratio of drug level in brain to plasma in Sprague-Dawley rat at 3 mg/kg, po measured after 2 hrs
- Format: ADME, organism-based
- setup_conditions: brain and plasma, read-out: BPR
recorded_metric: Kp at 2 h
Please give the numeric answer without any surrounding text.

>>> print(df.to_string())
                                   molecule  value_measured
0  CC(C)(NC(=O)c1nn(-c2c[n+]([O-])ccn2)c2c1C[C@@H]1C[C@H]21)C(F)(F)F            0.83
1  CC(C)(C)[C@@H](CO)NC(=O)c1nn(-c2c[n+]([O-])ccn2)c2c1C[C@@H]1C[C@H]21            0.04

Okay, next one:
Req: Name the recorded Kp at 2 h for CC(C)(C)[C@@H](CO)NC(=O)c1nn(-c2cnccn2)c2c1C[C@@H]1C[C@H]21 .
Resp: 0.1
